target: 5HT-Transporter (Homo sapiens); construct: Human platelet membranes (Oceanix Biosciences Corporation, Hanover, Md., USA) were thawed; tissue Oceanix Biosciences Corporation, Hanover, Md., USA; host or cells: human platelet membranes; experiment: Binding experiment for the 5HT-transporter ([3H]paroxetine, human platelet membranes); settings: [3H]paroxetine 0.5 nM, read-out: h-5HTT pIC50 (converted)
Metric: IC50 (µM)

1) O=c1c(NC2CCN(C/C=C/c3ccccc3)CC2)nccn1Cc1cccc(Br)c1: 1
2) CC(=O)c1ccc(-n2ccnc(NC3CCN(C/C(C)=C/c4ccccc4)CC3)c2=O)cc1: 0.631
3) C/C(=C\c1ccccc1)CN1CCC(Nc2nccn(CC(=O)N(CCN3CCOCC3)Cc3ccc(F)cc3)c2=O)CC1: 1.26
4) C/C(=C\c1ccccc1)CN1CCC(Nc2nccn(Cc3ccc(CNC(=O)c4ccccc4)cc3)c2=O)CC1: 0.316
5) CCCNCc1cccc(-n2ccnc(NC3CCN(C/C(C)=C/c4ccccc4)CC3)c2=O)c1: 0.631

P. C/C(=C\c1ccccc1)CN1CCC(Nc2nccn(-c3ccc(CN(C)Cc4ccccc4)cc3)c2=O)CC1
Q. CCn1ccnc(NC2CCN(C/C(C)=C/c3ccccc3)CC2)c1=O
R. C/C(=C\c1ccccc1)CN1CCC(Nc2nccn(CCCNCc3ccccc3)c2=O)CC1 [1-47]
S. C/C(=C\c1ccccc1)CN1CCN(c2nccn(CCN3CCOCC3)c2=O)CC1
T. C/C(=C\c1ccccc1)CN1CCC(Nc2nccn(-c3cccc(N4CCC(N5CCCC5)CC4)c3)c2=O)CC1
Query: Provide the items ranked by increasing IC50. Would you mind listing the labels in the order requested?
Result: P, R, T, Q, S

1. C/C(=C\c1ccccc1)CN1CCC(Nc2nccn(Cc3ccc(CNC(=O)Cc4ccccc4)cc3)c2=O)CC1
2. C/C(=C\c1ccccc1)CN1CCC(Nc2nccn(CCN3CCCCC3)c2=O)CC1 [2-3]
Query: Which of the two items, 1 and 2 , has the greater recorded IC50? Write down the label attached to your selection.
Result: 2

----------
molecular target: 5HT-Transporter (Homo sapiens, UniProt P31645); construct: Human platelet membranes (Oceanix Biosciences Corporation, Hanover, Md., USA) were thawed; tissue Oceanix Biosciences Corporation, Hanover, Md., USA; host or cells: human platelet membranes; experiment: Binding experiment for the 5HT-transporter ([3H]paroxetine, human platelet membranes); settings: [3H]paroxetine 0.5 nM, read-out: h-5HTT pIC50 (converted)
Sequence (P31645 whole entry): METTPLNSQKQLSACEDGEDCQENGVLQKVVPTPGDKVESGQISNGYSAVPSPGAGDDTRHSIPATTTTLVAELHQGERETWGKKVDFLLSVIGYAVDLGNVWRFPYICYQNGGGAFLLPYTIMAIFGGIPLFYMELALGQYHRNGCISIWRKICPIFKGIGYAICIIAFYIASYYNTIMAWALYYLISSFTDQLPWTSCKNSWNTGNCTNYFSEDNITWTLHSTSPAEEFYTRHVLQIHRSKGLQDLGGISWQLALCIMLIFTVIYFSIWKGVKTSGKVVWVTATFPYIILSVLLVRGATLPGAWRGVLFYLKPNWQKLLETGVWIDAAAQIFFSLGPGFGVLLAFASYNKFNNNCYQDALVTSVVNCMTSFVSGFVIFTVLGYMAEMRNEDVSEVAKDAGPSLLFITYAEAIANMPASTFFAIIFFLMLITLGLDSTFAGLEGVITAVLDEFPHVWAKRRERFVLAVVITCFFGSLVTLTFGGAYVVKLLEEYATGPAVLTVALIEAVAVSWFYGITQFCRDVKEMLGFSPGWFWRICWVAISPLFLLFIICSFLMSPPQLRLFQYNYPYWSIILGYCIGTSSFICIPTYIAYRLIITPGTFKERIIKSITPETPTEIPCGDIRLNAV
Metric: IC50 (nM)

Here are 5 molecules together with their reported answers.
1. C/C(=C\c1ccccc1)CN1CCC(Nc2nccn(-c3cccnc3)c2=O)CC1: 3980
2. C/C(=C\c1ccccc1)CN1CCC(Nc2nccn(-c3ccc(C=O)cc3)c2=O)CC1: 2000
3. CCOC(=O)CCCCn1ccnc(NC2CCN(C/C=C/c3ccccc3)CC2)c1=O: 631
4. C/C(=C\c1ccccc1)CN1CCC(Nc2nccn(-c3ccc(C(=O)N4CCN(c5ncccn5)CC4)cc3)c2=O)CC1: 631
5. C/C(=C\c1ccccc1)CN1CCC(Nc2nccn(-c3ccc(NC(=O)c4cccc(F)c4)cc3)c2=O)CC1: 251

a. C/C(=C\c1ccccc1)CN1CCC(Nc2nccn(-c3cccc(N(Cc4ccccc4)c4ccccc4)c3)c2=O)CC1
b. C/C(=C\c1ccccc1)CN1CCC(Nc2nccn(-c3cccc(N4CCN(Cc5ccccc5)CC4)c3)c2=O)CC1
c. C#CCN(C)C(=O)Cn1ccnc(NC2CCN(C/C(C)=C/c3ccccc3)CC2)c1=O
d. C/C(=C\c1ccccc1)CN1CCC(Nc2nccn(-c3ccc(C(=O)N4CCOCC4)cc3)c2=O)CC1
Query: Returns the items ordered by IC50, from maximum to minimum. Would you mind listing the labels in the order requested?
Result: c, d, b, a

----------
Molecular target: hα2C receptor (Homo sapiens)
Construct: expressed in transfected cells; host or cells: CHO cells, stably transfected; membrane preparation
Sequence (P18825 1-462): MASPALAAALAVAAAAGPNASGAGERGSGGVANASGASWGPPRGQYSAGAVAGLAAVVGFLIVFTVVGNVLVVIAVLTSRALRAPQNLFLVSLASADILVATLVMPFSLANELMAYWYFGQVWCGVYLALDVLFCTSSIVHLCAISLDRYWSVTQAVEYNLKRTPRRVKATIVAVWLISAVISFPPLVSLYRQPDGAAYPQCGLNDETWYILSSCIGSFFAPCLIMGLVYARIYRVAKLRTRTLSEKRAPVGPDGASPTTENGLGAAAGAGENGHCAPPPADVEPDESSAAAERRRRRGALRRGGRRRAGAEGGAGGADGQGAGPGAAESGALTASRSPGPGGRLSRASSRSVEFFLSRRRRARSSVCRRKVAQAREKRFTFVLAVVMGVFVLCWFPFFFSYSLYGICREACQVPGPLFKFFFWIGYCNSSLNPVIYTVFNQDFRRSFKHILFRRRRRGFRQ
Assay: Radioligand binding experiment for α2C-adrenoceptor ([3H]raulwolscine, CHO cell membranes)
Conditions: [3H]raulwolscine binding, read-out: h-α2C pIC50 (converted)
Metric: IC50 (nM)

Here are 2 compounds together with their reported answers.
1) C/C(=C\c1ccccc1)CN1CCC(Nc2nccn(-c3ccc(CN(C)CCN(C)C)cc3)c2=O)CC1 [1-110]: 2
2) C/C(=C\c1ccccc1)CN1CCC(Nc2nccn(-c3ccc(NCc4ccccc4)cc3)c2=O)CC1 [1-50]: 3.16

I. CCOC(=O)N1CCN(C(=O)Cn2ccnc(NC3CCN(C/C(C)=C/c4ccccc4)CC3)c2=O)CC1 [2-35]
II. C/C(=C\c1ccccc1)CN1CCC(Nc2nccn(-c3ccc(CN4CCCCC4)cc3)c2=O)CC1 [2-10]
Query: Which of the two items, I and II , has the greater recorded IC50? Write down the label attached to your selection.
Result: I
(I: 31.6 nM, II: 1.58 nM)

a. C/C(=C\c1ccccc1)CN1CCC(Nc2nccn(CC(=O)c3ccccc3)c2=O)CC1 [5-29]
b. C/C(=C\c1ccccc1)CN1CCC(Nc2nccn(Cc3cc(C)on3)c2=O)CC1 [6-3]
Query: Consider entries a and b . Which has the numerically lower IC50? Write down the label attached to your selection.
Result: a
(a: 10 nM, b: 31.6 nM)

A. O=c1c(NC2CCN(C/C=C/c3ccccc3)CC2)nccn1CCN1CCCCC1 [16-6]
B. CCCNCc1cccc(-n2ccnc(NC3CCN(C/C(C)=C/c4ccccc4)CC3)c2=O)c1 [1-11]
C. C/C(=C\c1ccccc1)CN1CCC(Nc2nccn(-c3cccc(NCCc4ccccc4)c3)c2=O)CC1 [1-58]
Query: Provide the items ranked by increasing IC50. Would you mind listing the labels in the order requested?
Result: B, C, A
(B: 1 nM, C: 6.31 nM, A: 63.1 nM)

I. COC(=O)c1ccc(-n2ccnc(NC3CCN(C/C(C)=C/c4ccccc4)CC3)c2=O)cc1 [3-12]
II. C/C(=C\c1ccccc1)CN1CCN(c2nccn(CCN3CCOCC3)c2=O)CC1 [9-2]
Query: Consider entries I and II . Which has the numerically lower IC50? Write down the label attached to your selection.
Result: I
(I: 15.8 nM, II: 200 nM)

----------
target: hα2A receptor (Homo sapiens, UniProt P08913); construct: expressed in transfected cells; host or cells: CHO cells, stably transfected; membrane preparation; experiment: Radioligand binding experiment for α2A-adrenoceptor ([3H]raulwolscine, CHO cell membranes); conditions: [3H]raulwolscine binding, read-out: h-α2A pIC50 (converted)
Sequence (P08913 whole entry): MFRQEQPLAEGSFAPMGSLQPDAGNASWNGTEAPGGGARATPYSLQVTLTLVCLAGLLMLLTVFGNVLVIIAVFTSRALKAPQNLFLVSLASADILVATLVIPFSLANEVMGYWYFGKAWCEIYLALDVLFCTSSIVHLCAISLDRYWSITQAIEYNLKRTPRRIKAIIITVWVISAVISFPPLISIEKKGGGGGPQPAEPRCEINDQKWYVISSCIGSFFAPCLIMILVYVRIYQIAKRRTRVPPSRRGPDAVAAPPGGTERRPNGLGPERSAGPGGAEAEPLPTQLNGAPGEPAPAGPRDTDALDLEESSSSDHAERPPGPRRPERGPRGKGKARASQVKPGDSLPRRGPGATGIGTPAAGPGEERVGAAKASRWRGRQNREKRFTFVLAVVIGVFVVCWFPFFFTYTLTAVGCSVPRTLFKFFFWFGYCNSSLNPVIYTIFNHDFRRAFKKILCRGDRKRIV
Metric: IC50 (nM)

Here are 6 compounds together with their reported answers.
1. C/C(=C\c1ccccc1)CN1CCC(Nc2nccn(Cc3ccc(CN)cc3)c2=O)CC1 [1-7]: 15.8
2. CC(=O)c1ccc(S(=O)(=O)NCc2ccc(Cn3ccnc(NC4CCN(C/C(C)=C/c5ccccc5)CC4)c3=O)cc2)cc1 [1-165]: 158
3. C/C(=C\c1ccccc1)CN1CCC(Nc2nccn(-c3ccc(N4CCOCC4)cc3)c2=O)CC1 [2-43]: 126
4. C/C(=C\c1ccccc1)CN1CCC(Nc2nccn(CC(=O)N3CCC(C(F)(F)F)CC3)c2=O)CC1 [2-12]: 63.1
5. CN(C)CCCn1ccnc(NC2CCN(C/C=C/c3ccccc3)CC2)c1=O [16-2]: 501
6. CCCNC(=O)Cn1ccnc(NC2CCN(C/C(C)=C/c3ccccc3)CC2)c1=O [1-10]: 126

1. COCCCNC(=O)Cn1ccnc(NC2CCN(C/C(C)=C/c3ccccc3)CC2)c1=O [1-23]
2. C/C(=C\c1ccccc1)CN1CCC(Nc2nccn(-c3ccc(CN(C)Cc4ccccc4)cc3)c2=O)CC1 [1-54]
Query: Which of the two items, 1 and 2 , has the greater recorded IC50? Write down the label attached to your selection.
Result: 1

----------
biological target: 5HT-Transporter (Homo sapiens, UniProt P31645); construct: Human platelet membranes (Oceanix Biosciences Corporation, Hanover, Md., USA) were thawed; tissue Oceanix Biosciences Corporation, Hanover, Md., USA; host or cells: human platelet membranes; assay: Binding experiment for the 5HT-transporter ([3H]paroxetine, human platelet membranes); conditions: [3H]paroxetine 0.5 nM, read-out: h-5HTT pIC50 (converted)
Metric: IC50 (µM)

Here are 5 compounds together with their reported answers.
1. C/C(=C\c1ccccc1)CN1CCC(Nc2nccn(-c3cccc(N)c3)c2=O)CC1: 3.16
2. CCOC(=O)N1CCN(C(=O)Cn2ccnc(NC3CCN(C/C(C)=C/c4ccccc4)CC3)c2=O)CC1: 2.51
3. C/C(=C\c1ccccc1)CN1CCC(Nc2nccn(-c3nccs3)c2=O)CC1: 0.316
4. CSCCn1ccnc(NC2CCN(C/C=C/c3ccccc3)CC2)c1=O: 2.51
5. C/C(=C\c1ccccc1)CN1CCC(N(C)c2nccn(Cc3ccc(CN(C)C)cc3)c2=O)CC1: 1

I. C/C(=C\c1ccccc1)CN1CCC(Nc2nccn(-c3ccc(C(=O)N(CCN(C)C)Cc4ccccc4)cc3)c2=O)CC1
II. C/C(=C\c1ccccc1)CN1CCC(Nc2nccn(Cc3csc(C)n3)c2=O)CC1 [6-6]
III. C/C(=C\c1ccccc1)CN1CCC(Nc2nccn(Cc3ccc(CNS(=O)(=O)c4ccc(C(F)(F)F)cc4)cc3)c2=O)CC1
Query: Provide the items ranked by increasing IC50. Would you mind listing the labels in the order requested?
Result: I, III, II
(I: 0.2 µM, III: 0.794 µM, II: 3.16 µM)
